Assay: Metabolic stability in human liver microsomes
Conditions: hepatic in vivo blood clearance calculated with well stirred liver model; 1 µM compound; '(stable)' given beside < 0.01
quantity: CLblood, human microsomes (L/h/kg)

                                   molecule  endpoint_value
0  O=S1(=O)CC[C@@H](Nc2nc(N3CC(N4CCOCC4)C3)c3cnn(-c4cccc(C(F)(F)F)c4)c3n2)C1            0.34
1  C[C@H]1CN(c2nc(N[C@H]3C[C@H](S(C)(=O)=O)C3)nc3c2cnn3-c2cccc(C(F)F)c2)C[C@@H]1O (single isomer, unassigned) [II-17-2]            0.28
2  CC1(O)CCN(C2CN(c3nc(N[C@H]4C[C@@H](O)C4)nc4c3cnn4-c3cccc(C(F)(F)F)c3)C2)CC1            0.33

[a] O=C1CCCN1C1CN(c2nc(N[C@H]3C[C@@H](O)C3)nc3c2cnn3-c2cccc(C(F)(F)F)c2)C1
[b] CC(C)(O)C1CN(c2nc(N[C@H]3C[C@H](S(C)(=O)=O)C3)nc3c2cnn3-c2cccc(C(F)(F)F)c2)C1
Could you check which of a and b has a smaller value for CLblood, human microsomes? State the label of the item chosen.
b
